Exercise: for every item that follows, state its recorded switch fluorescence ratio.
- Tested on: ATP;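 note: ATP exposure 15 min at 22 °C before imaging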
- test.name: switch fluorescence ratio, 500 uM ATP over buffer (Cy3 cluster intensity, sum of 5 cycles each) (fold (ratio)); higher = stronger signal-on switching upon ATP binding; sequences stand for … in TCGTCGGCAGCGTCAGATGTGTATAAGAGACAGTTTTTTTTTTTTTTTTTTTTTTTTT…TC
- condition.details: aptamer strand: ATP DNA aptamer (quencher-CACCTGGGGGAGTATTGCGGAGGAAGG + anchor), 100 nM annealed; ATP concentration: 500 uM
Would you mind answering with just the numeric figure?

Return switch fluorescence ratio (reported value) for this sequence: TAGTTTTTTA
1.02

Return switch fluorescence ratio (reported value) for this sequence: TAAAAACGGG
1.05

Return switch fluorescence ratio (reported value) for this sequence: TGGGTATTGT
1.02

Return switch fluorescence ratio (reported value) for this sequence: AGGTCGGCAA
1.02

Return switch fluorescence ratio (reported value) for this sequence: TTACAGGGG
1.18

Return switch fluorescence ratio (reported value) for this sequence: CCTGAGGGAT
1.86

Return switch fluorescence ratio (reported value) for this sequence: GACCATTTGT
0.995

Return switch fluorescence ratio (reported value) for this sequence: GGGGACGAGG
0.999

Return switch fluorescence ratio (reported value) for this sequence: AGGACATTGG
0.966

Return switch fluorescence ratio (reported value) for this sequence: GGACTGAGGA
1

Return switch fluorescence ratio (reported value) for this sequence: TGCACCGGGG
1.02

Return switch fluorescence ratio (reported value) for this sequence: TTGTGTC
1.06

Return switch fluorescence ratio (reported value) for this sequence: CCCGGTATCG
0.983

Return switch fluorescence ratio (reported value) for this sequence: TGGTTATTAC
1.04

Return switch fluorescence ratio (reported value) for this sequence: GGGTAATGCG
1.06

Return switch fluorescence ratio (reported value) for this sequence: CGAATTGTTT
0.962

Return switch fluorescence ratio (reported value) for this sequence: GGTTGTACGT
0.984

Return switch fluorescence ratio (reported value) for this sequence: ATTTGTTCTG
0.962

Return switch fluorescence ratio (reported value) for this sequence: CGTAGGTAAT
1.01

Return switch fluorescence ratio (reported value) for this sequence: AAAGGTGCGG
0.993

Return switch fluorescence ratio (reported value) for this sequence: TCTTCGACCG
1.31

Return switch fluorescence ratio (reported value) for this sequence: ACTTGTGAAG
1.02

Return switch fluorescence ratio (reported value) for this sequence: CTGTGCTAGG
1.01

Return switch fluorescence ratio (reported value) for this sequence: CCGAATAGTT
1.18

Return switch fluorescence ratio (reported value) for this sequence: TCTTTTTTCC
1.1

Return switch fluorescence ratio (reported value) for this sequence: AATCTGCTGC
1.09

Return switch fluorescence ratio (reported value) for this sequence: ATGCGCACGG
1.06

Return switch fluorescence ratio (reported value) for this sequence: TCACAAATGA
1.01

Return switch fluorescence ratio (reported value) for this sequence: AATTTGATAG
0.988

Return switch fluorescence ratio (reported value) for this sequence: CGTCGTTCTC
1.02

Return switch fluorescence ratio (reported value) for this sequence: GGTGCATATT
1.06

Return switch fluorescence ratio (reported value) for this sequence: GGTTAGCTGC
0.991

Return switch fluorescence ratio (reported value) for this sequence: GCGGGGCTTA
0.989

Return switch fluorescence ratio (reported value) for this sequence: AGAGGGAAAC
1.14

Return switch fluorescence ratio (reported value) for this sequence: GTTATACATT
1.02

Return switch fluorescence ratio (reported value) for this sequence: TGCTGGATTA
1.01

Return switch fluorescence ratio (reported value) for this sequence: GGATCTTAAG
0.991

Return switch fluorescence ratio (reported value) for this sequence: GAGGCAAGG
1.34

Return switch fluorescence ratio (reported value) for this sequence: TTTTGATTTC
1.02

Return switch fluorescence ratio (reported value) for this sequence: TGTTTTTTTT
0.999

Return switch fluorescence ratio (reported value) for this sequence: GGTTACTGGA
1.02

Return switch fluorescence ratio (reported value) for this sequence: CATCAGGGCT
1.06

Return switch fluorescence ratio (reported value) for this sequence: GACTGGATTG
0.996

Return switch fluorescence ratio (reported value) for this sequence: CAAGGCATTG
0.978

Return switch fluorescence ratio (reported value) for this sequence: TAAATTACTA
1.05

Return switch fluorescence ratio (reported value) for this sequence: TGGTGTCGT
1.01

Return switch fluorescence ratio (reported value) for this sequence: GTTCCTTGGA
1.01

Return switch fluorescence ratio (reported value) for this sequence: ACCGTCTGTA
1.01

Return switch fluorescence ratio (reported value) for this sequence: GGTATCAGTT
1

Return switch fluorescence ratio (reported value) for this sequence: TCAAGGAGGT
1.01

Return switch fluorescence ratio (reported value) for this sequence: TTGTATTCTT
1.04

Return switch fluorescence ratio (reported value) for this sequence: AGTGAAGGGG
1.1

Return switch fluorescence ratio (reported value) for this sequence: AGGCAATATG
1.19

Return switch fluorescence ratio (reported value) for this sequence: TGGGAGCAGG
1.05

Return switch fluorescence ratio (reported value) for this sequence: GGGGAAACAA
0.99

Return switch fluorescence ratio (reported value) for this sequence: AGGAATAAGT
1.11

Return switch fluorescence ratio (reported value) for this sequence: CGTGATTTTT
1

Return switch fluorescence ratio (reported value) for this sequence: TTGGCCTTAG
0.972

Return switch fluorescence ratio (reported value) for this sequence: ACCGAATGTT
0.999

Return switch fluorescence ratio (reported value) for this sequence: ACGGGGGAAT
0.991

Return switch fluorescence ratio (reported value) for this sequence: GATGTAATGT
1.01

Return switch fluorescence ratio (reported value) for this sequence: AAATAAATTG
0.999

Return switch fluorescence ratio (reported value) for this sequence: CGTCTATGGG
1

Return switch fluorescence ratio (reported value) for this sequence: GGGGAAACGG
1.06

Return switch fluorescence ratio (reported value) for this sequence: GTGTGTAGGG
0.999

Return switch fluorescence ratio (reported value) for this sequence: ACCTTTTAAG
1.23

Return switch fluorescence ratio (reported value) for this sequence: CTCAGATGAT
0.988

Return switch fluorescence ratio (reported value) for this sequence: TGTTTTAGGC
0.977

Return switch fluorescence ratio (reported value) for this sequence: TTTCAAATGT
1.11

Return switch fluorescence ratio (reported value) for this sequence: CACGCGAGGA
1.12

Return switch fluorescence ratio (reported value) for this sequence: TCGGATGAGG
1
